# experiment_notes: RP, Waters CORTECS T3, 100 × 2.1 mm, 2.7 µm, 0.15 mL/min, estimated dead time 1.5 min; A: water + 0.1% formic acid, pH 3; B: methanol + 0.1% formic acid, pH 3; gradient (min/%B) 0/0 1/0 6/5 30/100 35/100 35.1/0 40/0
# test_conditions: stereoisomer not certain
measured_quantity: log10 LC retention time (log10 of the value in min)
Note: values are log10 of LC retention time expressed in min.

Inquiry: Give the measured log10 LC retention time of N[C@@H](Cc1cc(I)c(Oc2ccc(O)cc2)c(I)c1)C(=O)O .
Reply text: 1.31

Next:
Inquiry: Give the measured log10 LC retention time of Cn1cnc(=N)c2[nH]cnc21 .
Reply text: 0.25

Inquiry: Give the measured log10 LC retention time of O=c1[nH]c(=O)c2[nH]cnc2[nH]1 .
Reply text: 0.67

Inquiry: Give the measured log10 LC retention time of O=C(O)c1cc(=O)c2cccc(O)c2[nH]1 .
Reply text: 1.13

Inquiry: Give the measured log10 LC retention time of C=CC1=C(C)C(C=c2[nH]c(=Cc3[nH]c(C=C4NC(=O)C(C)=C4C=C)c(C)c3CCC(=O)O)c(CCC(=O)O)c2C)=NC1=O .
Reply text: 1.39

Inquiry: Give the measured log10 LC retention time of CC(=O)OCC(=O)C1CCC2C3CCC4=CC(=O)CCC4(C)C3CCC12C (stereo not drawn) [DEOXYCORTICOSTERONE ACETATE] .
Reply text: 1.42

Inquiry: Give the measured log10 LC retention time of CNCCc1c[nH]c2ccccc12 .
Reply text: 1.10

---

# experiment_notes: RP, Waters CORTECS T3, 100 × 2.1 mm, 2.7 µm, 0.2 mL/min, estimated dead time 1.1 min; A: water + 0.1% formic acid, pH 3; B: methanol + 0.1% formic acid, pH 3; gradient (min/%B) 0/0 1/0 6/5 30/100 35/100 35.1/0 40/0
# test_conditions: stereoisomer not certain
measured_quantity: LC retention time (min)
The response must be a number in min with no trailing unit.

Inquiry: Give the measured LC retention time of CSCCC(NC(C)=O)C(=O)O (racemic) [N-ACETYL-DL-METHIONINE] .
Reply text: 10.6

Inquiry: Give the measured LC retention time of O=c1[nH]c(=O)c2ncn(C3OC(COP(=O)(O)O)C(O)C3O)c2[nH]1 (stereo not drawn) [XANTHOSINE 5'-MONOPHOSPHATE] .
Reply text: 1.35

Okay, next one:
Inquiry: Give the measured LC retention time of CCC(NC(=O)CCC(N)C(=O)O)C(=O)NCC(=O)O (stereo not drawn) [OPHTHALMIC ACID] .
Reply text: 1.38

---

# experiment_notes: RP, Waters ACQUITY UPLC BEH C18, 100 × 2.1 mm, 1.7 µm, 0.1 mL/min, estimated dead time 2.2 min; A: water + 0.1% formic acid, pH 3; B: methanol + 0.1% formic acid, pH 3; gradient (min/%B) 0/5 5/5 25/95 25.1/100 35/100 35.1/5 45/5
# test_conditions: stereoisomer not certain
Recorded measurements of LC retention time, one per entry
The response must be a number in min with no trailing unit.

Inquiry: Give the measured LC retention time of Cc1ncc(CO)c(C(=O)O)c1O [4-PYRIDOXATE] .
Reply text: 6.57

Inquiry: Give the measured LC retention time of O=c1[nH]cnc2c1ncn2C1OC(CO)C(O)C1O (stereo not drawn) .
Reply text: 2.76

Inquiry: Give the measured LC retention time of CC(O)(CC(=O)O)C(=O)O (stereo not drawn) [CITRAMALATE] .
Reply text: 5.3

Inquiry: Give the measured LC retention time of NC(=O)C1CCCN1C(=O)C(Cc1cnc[nH]1)NC(=O)C1CCC(=O)N1 (stereo not drawn) .
Reply text: 2.7

Inquiry: Give the measured LC retention time of Cc1cc2nc3c(=O)[nH]c(=O)nc-3n(CC(O)C(O)C(O)CO)c2cc1C (stereo not drawn) .
Reply text: 15.7

Next:
Inquiry: Give the measured LC retention time of COc1cc(C=CC(=O)O)ccc1O [FERULATE] .
Reply text: 17.2

Inquiry: Give the measured LC retention time of O=c1[nH]c(=O)c2[nH]cnc2[nH]1 .
Reply text: 2.82

Inquiry: Give the measured LC retention time of O=C(O)C1(O)CC(O)C(O)C(O)C1 (stereo not drawn) [QUINATE] .
Reply text: 2.67
